# System: SN12C renal
# ASSAY: NCI tumour cell line growth inhibition, 48 h; in the data active means GI50 below about 0.43 µM; inactive means the rest
In this exercise, the only acceptable responses are active, inactive

Recorded test call requested for COc1ccc2c(=O)cc(-c3ccccc3)[nH]c2c1
inactive

Recorded test call requested for O=[N+]([O-])c1cc(Cl)c2[nH]c3c(Cl)cc([N+](=O)[O-])cc3c2c1
active

Recorded test call requested for NS(=O)(=O)c1ccc(-n2nc3c(c2-c2ccc(Cl)cc2)Cc2ccccc2-3)cc1
inactive

Recorded test call requested for COC(=O)c1cc2c3ccccc3n3c(=O)c4cc5ccc(N(S(=O)(=O)c6ccc(C)cc6)S(=O)(=O)c6ccc(C)cc6)cc5nc4c(n1)c23
inactive

Recorded test call requested for CCOC(=O)Nc1nc2ccc(OC)cc2s1
inactive

Recorded test call requested for COc1ccc(NC(=O)CSC2=C(Nc3cccc(Br)c3)C(=O)N(Cc3ccccc3)C2=O)cc1Cl
inactive

Recorded test call requested for CC(C)c1c(-c2ccccc2)nc2c(C#N)c[nH]n2c1=O
inactive

Recorded test call requested for COc1ccc(-c2cs/c(=N\N=C\c3ccc(O)cc3O)n2/N=C/c2ccc(O)cc2O)cc1
inactive

Recorded test call requested for CCC(O)c1ccc(Br)cc1NC(=O)c1cccc(Cl)c1 (stereo not drawn)
inactive

Recorded test call requested for Cc1nc(N)nc2c1CCC(O)S2 (stereo not drawn)
inactive

Recorded test call requested for O=C(/C=C/c1ccccc1)C(Br)C(Br)c1ccccc1 (stereo not drawn)
inactive

Recorded test call requested for O=C1/C(=C/c2cccc(Br)c2)COc2ccc(O)cc21
inactive

Recorded test call requested for O=C(Nc1cc(C(F)(F)F)ccc1Cl)c1ccc(NC2=C(Cl)C(=O)N(Cc3ccccc3)C2=O)cc1
inactive

---

# System: 786-0 renal
# ASSAY: NCI tumour cell line growth inhibition, 48 h
ASSAY_READOUT: TGI

Query O=[N+]([O-])c1cc(Cl)c2[nH]c3c(Cl)cc([N+](=O)[O-])cc3c2c1 yields TGI of 16.7 µM

Query Cc1ccc(SC2C(=O)C3CC(OCc4ccccc4)C2(C)C3(C)C)cc1 (centres undefined) yields TGI of > 100 µM

Query O=C1C(Br)=C(c2ccccc2)O/C1=C/C(=O)c1ccc(Br)cc1 yields TGI of 47 µM

Query O=C(CCC(=O)Nc1ccc(Cl)c(Cl)c1)CC(=O)c1ccc(Br)cc1 yields TGI of > 100 µM

Query CC(=O)c1ccc2c(c1)C1C=CCC1[C@H](c1cc3c(cc1Br)OCO3)N2 (some centres undefined) yields TGI of 15.3 µM

Query CC[C@H](Nc1ncnc2nc[nH]c12)c1nc2cccc(F)c2c(=O)n1-c1ccccc1 yields TGI of > 100 µM

Query CC(=O)N/N=C1\CC(C)(C)C2CCC1C2 (centres undefined) yields TGI of > 100 µM

Query Cc1cnc2sn(-c3ccc([N+](=O)[O-])cc3)c(=O)c2c1 yields TGI of > 100 µM

Query O=C(c1nc2ccc([N+](=O)[O-])cc2[nH]c1=O)C(O)c1ccc2c(c1)OCO2 (centres undefined) yields TGI of > 100 µM

Query Cc1ccc2c(c1)C(=O)c1nc(C)ccc1C2=O yields TGI of > 100 µM

Query NC(=S)/N=C(/c1nc2ccc(Cl)cc2[nH]c1=O)C(O)c1ccccc1Cl (centres undefined) yields TGI of > 100 µM

Query CCNc1cc(-c2cccc(OC(F)(F)F)c2)nc2ccc(N3CCCC3)cc12 yields TGI of 3.48 µM

Query CCCC(CCC(N)=O)(CCC(N)=O)[N+](=O)[O-] yields TGI of > 100 µM

Query CCc1ccc(NC(=O)NC(=O)c2ccccc2[N+](=O)[O-])cc1Oc1ncc(Cl)cn1 yields TGI of 1.01 µM

Query [O-][N+](=Nc1ccccc1CO)c1ccccc1CO yields TGI of > 100 µM

Query COc1ccc(-c2ccncc2)cc1C(N)=O yields TGI of > 25 µM

Query COc1ccc(/C=C/C(=O)/C=C/c2cc3ccccc3[nH]c2=O)cc1 yields TGI of 3.51 µM

Query CC1=CC(=O)CC2(C)CC[C@@H]3C[C@]12OC3(C)C (some centres undefined) yields TGI of > 100 µM

Query O=[N+]([O-])c1ccc2c(c1)N([O-])C1(CCCCC1)[N+]2=O yields TGI of 24.6 µM

// data source = PubChem BioAssay (NCI)
